test system: NIH-3T3 viability, ATP luminescence; assay: murine fibroblast viability via ATP level – cell-based, murine fibroblasts, cytotoxicity control for Trypanosoma cruzi inhibitor project (AID 1159561); conditions: 4 days
The source made the active and inactive calls.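 Rule for the calls: active = toxic to mouse fibroblast host cells, with IC50 below 50 µM; inactive = the rest.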
Use one of these outcomes when replying: label 1 = active, label 0 = inactive

Task: Given "CC(C)Nc1nccc(-c2c(-c3ccc(F)cc3)ncn2C2CCOCC2)n1" , state the outcome it received in this test.
Output: label 0

Task: Tell me the assay call for "O=C(NCC1CCCCC1)c1cnns1" please.
Output: label 0

Task: Per the records of this test, what outcome belongs to Cn1cncc1CN1CCC2(CC1)COC(Cc1ccccc1)C2 (stereo unspecified) ?
Output: label 1

Task: Any idea what this test logged for CC(Cn1ccnc1)NC(=O)COc1ccc(Cl)c(Cl)c1 (stereo unspecified) ?
Output: label 0

Task: Hi, do you know how "N#Cc1ccc(S(=O)(=O)N2CCN(Cc3cccc(-c4ccncc4)c3)CC2)cc1" came out in this test?
Output: label 1

Task: Would you mind telling me which call this test gave CC1(C)CCC(=Cc2ccc(Cl)cc2)CC1(O)Cn1ccnc1 (stereo unspecified) ?
Output: label 1

Task: Entry "O=C(Cn1cnc2cc([N+](=O)[O-])ccc2c1=O)NCCc1ccc(Cl)cc1Cl" : call = ?
Output: label 0

Task: Please let me know the test result on file for O=C(c1cc2cc(Cl)ccc2[nH]1)N1CCCCC1c1cccnc1 (stereo unspecified) .
Output: label 1

Task: Could you kindly confirm the outcome this assay logged for "O=C(c1cccc(Cl)c1Cl)N1CCn2c1nc(-c1ccncc1)cc2=O" ?
Output: label 1

Task: Dear all, I need the recorded test outcome for "COc1ccc(S(=O)(=O)Nc2ccccc2OC)cc1NC(=O)CCCc1c[nH]c2ccccc12" , thank you.
Output: label 0

Task: Look up the recorded call for "COc1ccc(NS(=O)(=O)c2cc(NC(=O)Cc3ccc(C)cc3)ccc2N2CCOCC2)cc1" in this test.
Output: label 1

Numbers sourced from PubChem BioAssay AID1159561.
